Attribution: the supplement of paper PMC10567573

B1: STEAP1 (parent)
chain: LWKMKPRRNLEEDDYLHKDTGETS

Variants of: B1
Assay: protein stability index of a GFP-peptide fusion (GPS, HEK-293T) (PSI 1-6); higher = more stable;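 further: lentivirally expressed fusions sorted by FACS into six bins by GFP to DsRed ratio, PSI derived from sequencing read proportions per bin multiplied by bin number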
Settings: c terminus: a fixed tail appended
measurement name: protein stability index
Answers are plain numbers.

Solved entries (count: 5):
G21K : 4.26
P6V : 3.96
K5D : 4.8
L16P : 4.2
E22H : 3.89

For each of the variants below, note its protein stability index.
1. P6M
2. E11D
3. E11M
4. W2L
5. L16R
6. E22F

Result block:
1. 3.77
2. 4
3. 3.96
4. 5
5. 4.1
6. 3.83

Could you report protein stability index for every entry in the following list?
1. E22G
2. M4W
3. K3A
4. T23M

Result block:
[4.37, 4.14, 4.19, 3.99]

Would you mind listing protein stability index for each of the following variants?
1. E12W
2. K18N
3. D19P
4. N9L
5. D14S
6. W2F

Result block:
[3.16, 4.51, 4.36, 4.15, 4.18, 4.55]

List protein stability index for every entry below, keeping the order given.
1. M4V
2. R7S
3. N9P
4. H17G

Result block:
1. 4.41
2. 4.58
3. 4.11
4. 4.5

Answer for every listed entry: what is its protein stability index? The entries follow.
1. Y15T
2. K5N

Result block:
1: 5.04; 2: 4.32

Would you be so kind as to report protein stability index for each listed record?
1. E11V
2. D19R
3. K3R

Result block:
4.28
4.09
4.28

List protein stability index for every entry below, keeping the order given.
1. G21V
2. L10W
3. R8T
4. H17P
5. W2Q
6. T23I
7. K5H

Result block:
[3.64, 4.41, 4.47, 4.8, 5.31, 3.53, 4.4]

Please give protein stability index for each item listed below.
1. G21M
2. R8H
3. G21S
4. M4N
5. G21C
6. E12Y

Result block:
1. 3.93
2. 4.1
3. 4.59
4. 4.69
5. 4.21
6. 3.3
